Ref: patent US20240270698A2

molecular target: human recombinant MLK3 protein (Homo sapiens, UniProt Q16584); construct: purchased Eurofins; assay: MLK3 kinase activity assay (Eurofins, gamma-33P-ATP, filtermat scintillation counting); format: biochemical; settings: human recombinant MLK3, 120 minutes at room temperature
Sequence (Q16584 whole entry): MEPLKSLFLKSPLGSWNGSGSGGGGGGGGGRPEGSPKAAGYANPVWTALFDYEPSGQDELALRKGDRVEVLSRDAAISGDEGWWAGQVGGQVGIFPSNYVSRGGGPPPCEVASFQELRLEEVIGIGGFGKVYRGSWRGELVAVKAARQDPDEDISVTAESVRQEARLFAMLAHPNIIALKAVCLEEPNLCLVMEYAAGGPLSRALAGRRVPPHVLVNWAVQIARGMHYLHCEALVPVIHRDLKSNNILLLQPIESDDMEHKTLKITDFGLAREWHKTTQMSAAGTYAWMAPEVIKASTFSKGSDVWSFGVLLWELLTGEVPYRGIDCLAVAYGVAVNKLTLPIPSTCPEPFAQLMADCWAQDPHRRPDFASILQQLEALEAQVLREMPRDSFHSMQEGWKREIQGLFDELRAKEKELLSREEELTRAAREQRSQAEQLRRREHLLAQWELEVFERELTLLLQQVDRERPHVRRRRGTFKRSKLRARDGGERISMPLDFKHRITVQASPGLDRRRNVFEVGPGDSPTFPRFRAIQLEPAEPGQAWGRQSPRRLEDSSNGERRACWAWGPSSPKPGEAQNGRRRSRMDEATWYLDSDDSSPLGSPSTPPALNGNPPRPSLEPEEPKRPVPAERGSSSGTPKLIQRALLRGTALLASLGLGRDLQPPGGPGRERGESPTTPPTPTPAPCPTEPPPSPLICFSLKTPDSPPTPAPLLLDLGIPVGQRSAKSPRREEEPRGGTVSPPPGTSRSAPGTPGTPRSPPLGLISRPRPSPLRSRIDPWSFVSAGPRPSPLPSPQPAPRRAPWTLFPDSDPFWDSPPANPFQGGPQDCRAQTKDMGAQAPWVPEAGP
Consider the following molecules; for each one, report its IC50.

// IC50 lookup, key: CCCn1cc(-c2n[nH]c3ccc(Nc4ncc(Cl)c(Nc5ccccc5P(C)(C)=O)n4)cc23)cn1
1 to 10 nM

CP(C)(=O)c1ccccc1Nc1nc(Nc2ccc3c(c2)CCNC3)ncc1Cl ?
1 to 10 nM

CP(C)(=O)c1ccccc1Nc1nc(Nc2ccc3c(c2)CNCC3)ncc1Cl ?
1 to 10 nM

CP(C)(=O)c1ccccc1Nc1nc(Nc2ccc3[nH]ncc3c2)ncc1Cl ?
1 to 10 nM

CP(C)(=O)c1ccccc1Nc1nc(N2CCc3c(N)cccc3C2)ncc1Cl ?
> 1000 nM

CC(C)C1NCCc2ccc(Nc3ncc(Cl)c(Nc4ccccc4P(C)(C)=O)n3)cc21 (centres unmarked) ?
1 to 10 nM

Cc1cc2cc(Nc3ncc(Cl)c(Nc4ccccc4P(C)(C)=O)n3)ccc2[nH]1 ?
1 to 10 nM

CP(C)(=O)c1ccccc1Nc1nc(Nc2ccc3c(c2)CN(C(=O)C(F)(F)F)C3)ncc1Cl ?
10 to 100 nM

====

Target: human recombinant MLK3 protein (Homo sapiens, UniProt Q16584)
Assay: MLK3 kinase activity assay (Eurofins, gamma-33P-ATP, filtermat scintillation counting)
Details: human recombinant MLK3, 120 minutes at room temperature
Experimental: Compounds 1 to 119 synthesized in Example 1 according to the present disclosure were assayed for inhibitory activity against MLK3/LRRK2 enzymes and anticancer activity against HepG2/HS746T cancer cells, and the results are summarized in Table 1, below. Inhibitory activity against MLK3 and LRRK2 enzymes was evaluated in Eurofins. […] Values for the activity of MLK3 were expressed as % of the control. […] Values for the activity of LRRK2 were expressed as % of the control.
pIC50: −log10 of the molar value.
QUANTITY_KIND: pIC50

// pIC50 lookup, key: CP(C)(=O)c1ccccc1Nc1nc(Nc2ccc3cn[nH]c3c2)ncc1Cl
8.00 to 9.00

CP(C)(=O)c1ccccc1Nc1nc(Nc2ccc3[nH]c(C(F)(F)F)nc3c2)ncc1Cl ?
7.00 to 8.00

CP(C)(=O)c1ccccc1Nc1nc(Nc2cnc3ccccc3c2)ncc1Cl ?
7.00 to 8.00

CP(C)(=O)c1ccccc1Nc1nc(Nc2ccc3c(c2)CNC3)ncc1Cl ?
8.00 to 9.00

COc1cc2c(cc1Nc1ncc(Cl)c(Nc3ccccc3P(C)(C)=O)n1)CN(C(=O)C(F)(F)F)CC2 ?
8.00 to 9.00

CP(C)(=O)c1ccccc1Nc1nc(Nc2ccc3c(c2)CCN(C(=O)C(F)(F)F)C3)ncc1Cl ?
8.00 to 9.00

CP(C)(=O)c1ccccc1Nc1nc(Nc2cnc3[nH]ncc3c2)ncc1Cl ?
7.00 to 8.00

CP(C)(=O)c1ccccc1Nc1nc(Nc2cnc3[nH]nc(-c4cccnc4F)c3c2)ncc1Cl ?
8.00 to 9.00

CP(C)(=O)c1ccccc1Nc1nc(Nc2ccc3[nH]nc(-c4cn[nH]c4)c3c2)ncc1Cl ?
8.00 to 9.00

CP(C)(=O)c1ccccc1Nc1nc(Nc2ccc3[nH]nc(-c4ccncc4)c3c2)ncc1Cl ?
8.00 to 9.00

Cc1cc(C)cc(Nc2ncc(Cl)c(Nc3ccccc3S(=O)(=O)C(C)C)n2)c1 ?
6.00 to 7.00

CC(C)S(=O)(=O)c1ccccc1Nc1nc(Nc2cc(F)cc(F)c2)ncc1Cl ?
6.00 to 7.00

CC(C)(C)OC(=O)N1CCN(c2ccc(-c3n[nH]c4ccc(Nc5ncc(Cl)c(Nc6ccccc6P(C)(C)=O)n5)cc34)cc2)CC1 ?
8.00 to 9.00

CP(C)(=O)c1ccccc1Nc1nc(Nc2ccc3[nH]nc(-c4ccc(C=O)o4)c3c2)ncc1Cl ?
8.00 to 9.00

CC1(C)c2cc(Nc3ncc(Cl)c(Nc4ccccc4P(C)(C)=O)n3)ccc2CCN1C(=O)C(F)(F)F ?
8.00 to 9.00

CP(C)(=O)c1ccccc1Nc1nc(Nc2ccc3[nH]nc(Br)c3c2)ncc1Cl ?
8.00 to 9.00
